Values compiled from ChEMBL document CHEMBL3407438.

test: AUC in NMRI mouse at 0.2 mg/kg, iv; type: ADME, organism-based; set-up: dose 0.2 mg/kg, route intravenous; settings: plasma
We begin with a simple list: items and their reported AUC.
Write down the numeric answer in ng·h/mL and omit the unit.

{"structure": "O=C1NCCC12CCN(c1c(Cl)cncc1-c1ccc(N3CCOCC3)cc1)CC2", "AUC, ng·h/mL": 50.8}

Requested read-out: AUC. Entry: "Cn1cc(-c2ccc(-c3cncc(Cl)c3N3CCC4(CCNC4=O)CC3)cc2)cn1"
107

* * *

target: Voltage-gated inwardly rectifying potassium channel KCNH2 (Homo sapiens)
Sequence (Q12809 whole entry): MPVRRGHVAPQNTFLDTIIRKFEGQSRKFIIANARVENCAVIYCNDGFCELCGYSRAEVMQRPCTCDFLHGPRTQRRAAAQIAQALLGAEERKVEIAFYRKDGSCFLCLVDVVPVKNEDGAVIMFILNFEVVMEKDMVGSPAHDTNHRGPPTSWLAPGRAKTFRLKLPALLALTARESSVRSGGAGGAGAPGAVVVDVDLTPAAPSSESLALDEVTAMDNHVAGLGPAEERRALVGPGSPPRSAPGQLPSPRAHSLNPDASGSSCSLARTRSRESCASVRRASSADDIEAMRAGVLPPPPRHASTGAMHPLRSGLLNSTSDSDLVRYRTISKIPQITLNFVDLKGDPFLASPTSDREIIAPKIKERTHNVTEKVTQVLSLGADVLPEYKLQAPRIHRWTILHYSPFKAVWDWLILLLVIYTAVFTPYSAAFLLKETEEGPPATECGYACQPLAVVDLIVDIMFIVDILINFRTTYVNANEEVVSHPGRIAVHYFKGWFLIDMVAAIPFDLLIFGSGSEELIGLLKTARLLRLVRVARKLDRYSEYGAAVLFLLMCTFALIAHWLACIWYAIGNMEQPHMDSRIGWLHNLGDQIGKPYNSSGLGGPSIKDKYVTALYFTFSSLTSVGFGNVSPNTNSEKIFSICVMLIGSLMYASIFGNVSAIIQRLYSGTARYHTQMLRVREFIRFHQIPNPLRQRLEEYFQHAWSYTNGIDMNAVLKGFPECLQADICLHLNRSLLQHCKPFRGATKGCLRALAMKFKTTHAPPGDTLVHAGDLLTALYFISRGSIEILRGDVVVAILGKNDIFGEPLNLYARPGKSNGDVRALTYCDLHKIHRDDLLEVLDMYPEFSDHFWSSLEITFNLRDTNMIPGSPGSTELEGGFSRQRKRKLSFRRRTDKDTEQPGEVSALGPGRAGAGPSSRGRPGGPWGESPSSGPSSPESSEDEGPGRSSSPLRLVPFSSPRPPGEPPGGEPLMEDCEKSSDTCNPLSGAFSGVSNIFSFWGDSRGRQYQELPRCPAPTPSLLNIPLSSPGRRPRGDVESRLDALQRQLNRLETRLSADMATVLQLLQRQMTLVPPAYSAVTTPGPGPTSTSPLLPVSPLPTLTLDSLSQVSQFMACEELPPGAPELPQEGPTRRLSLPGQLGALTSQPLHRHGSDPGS
parameter: IC50

I have this compound here, "NC(=O)C1CCN(c2c(Cl)cncc2Cl)CC1" , and I need its recorded IC50.
> 10 µM
